Overview of recorded polymyxin IC50 shift for various compounds
experimental-details: polymyxin IC50 shift, WT versus phoP- Typhimurium – Salmonella typhimurium, WT and phoP- strains, set 2, mechanism study for PhoP regulon inhibitor project (AID 2816)
reported-conditions: S. Typhimurium polymyxin IC50 shift, OD600, 24 h; measured here: wild-type strain IC50 shift; at 150 µM; stronger effect = higher value

For the compound COc1cccc(C2Sc3ccccc3NC3=C2C(=O)c2ccccc23)c1 (stereo unspecified) , what polymyxin IC50 shift is on record?
3.6

And for O=C1C2=C(Nc3ccccc3SC2c2ccc(I)cc2)c2ccccc21 (stereo unspecified) ?
2.66

---

Tested on: S. Typhimurium polymyxin IC50 shift, OD600, 24 h
experimental-details: polymyxin IC50 shift, WT versus phoP- Typhimurium – Salmonella typhimurium, WT and phoP- strains, set 2, mechanism study for PhoP regulon inhibitor project (AID 2816)
reported-conditions: phoP- polymyxin IC50 at 150 uM
Overview of recorded polymyxin IC50 for various compounds
# value in µM; strip the unit string

O=C(Nc1ccc(Br)cc1)N1CCCN(Cc2ccccc2F)C1 = 2.62
COc1ccc(CNC(=S)Nc2ccncc2)cc1 = 4.42
O=C1C2=C(Nc3ccccc3SC2c2ccsc2)c2ccccc21 (stereo not given) = 3
CCn1cc(C(=O)O)c(=O)c2cc(F)c(N3CCN(C(=S)Nc4ccccc4C(F)(F)F)CC3)cc21 = 2.95

# next compound below
For the compound O=C1C2=C(Nc3ccccc3SC2c2ccc(I)cc2)c2ccccc21 (stereo not given) , what polymyxin IC50 is on record?
2.89
